# MEASUREMENT_PROTOCOL: Serum stability in RPMI1640 medium containing 10% fetal bovine serum
# Assay type: in vitro ADME
# EXPERIMENTAL_CONTEXT: bovine, 24 hr, read-out: Relative Percent Remaining at 24 hr
READOUT: remaining at 24 h, 10 μM (%)

COMPOUND	MEASUREMENT_UNITS	TEST_VALUE
CC[C@H](C)[C@H](NC(=O)[C@H](Cc1ccc(O)cc1)NC(=O)C(C)(C)C)C(=O)N[C@@H](Cc1ccc(O)cc1)C(=O)NCC(=O)N[C@@H](CO)C(=O)N[C@@H](Cc1ccccc1)C(=O)N[C@@H](CCCNC(=N)N)C(=O)NCCCOCCOCCOCCCNC(=O)O[C@H]1C(=O)[C@@]2(C)[C@H]([C@H](OC(=O)c3ccccc3)[C@]3(O)C[C@H](OC(=O)[C@H](O)[C@@H](NC(=O)c4ccccc4)c4ccccc4)C(C)=C1C3(C)C)[C@]1(OC(C)=O)CO[C@@H]1C[C@@H]2O [Pv-YIYGSFR-PEG(13)-10Ca-PXL]	%	63
